Test system: MOLT-4
protocolDescription: NCI tumour cell line growth inhibition, 48 h
Active and inactive are the calls of the source. Cut-off read from the data, not from the text of the source: active = GI50 up to about 1.1 µM and inactive = higher.
Outcomes: active, inactive

| compound | measuredTarget | label |
| --- | --- | --- |
| CC1OC(OC2C(O[C@@H]3C[C@@H]4CC[C@@H]5[C@H](CC[C@]6(C)C7C(C[C@@H]56)O[C@]5(CC[C@@H](C)CO5)[C@H]7C)[C@@]4(C)C[C@H]3O)OC(CO)C(O)C2O)C(O)C(O)C1O (some centres not stated) | MOLT-4 | inactive |
| COc1ccc2nc(NC(=O)C(=O)C(C(=O)c3ccccc3-c3ccccc3)C3OC(=O)c4ccccc43)sc2c1 (configuration not stated) | MOLT-4 | inactive |
| COC(=O)C(Cc1ccc(Oc2cc(CC(NC(=O)c3ccccc3)C(=O)OC)ccc2OC)cc1)NC(=O)c1ccccc1 (configuration not stated) | MOLT-4 | active |
| CC1(C)CCC(C)(C)c2c1ccc(O)c2Cc1c(O)ccc2c1C(C)(C)CCC2(C)C | MOLT-4 | inactive |
| C=CCOC(=O)C1CCC(=O)N1C(=O)C(Cl)Cl (configuration not stated) | MOLT-4 | inactive |
| COC(=O)CNC(=O)CCC(C)[C@H]1CCC2C3C(C[C@H](OC(C)=O)[C@@]21C)[C@@]1(C)CCC2(C[C@H]1C[C@H]3OC(C)=O)OOC1(CCCCC1)OO2 (some centres not stated) | MOLT-4 | inactive |
| CN1CCCCC1CCN1c2ccccc2Sc2ccc([S+](C)[O-])cc21 (configuration not stated) | MOLT-4 | inactive |
| CCOC(=O)N/N=C/C1=NN(C(=O)OCC)[S+]([O-])C1C (configuration not stated) | MOLT-4 | inactive |
| O=C1NCN(c2ccccc2)C12CCN(CCCSc1ccc(F)cc1)CC2 | MOLT-4 | inactive |
| O=C1C(Br)=C(C2=CC(=P(c3ccccc3)(c3ccccc3)c3ccccc3)C=C2)C(=O)C(Br)=C1C1=CC(=P(c2ccccc2)(c2ccccc2)c2ccccc2)C=C1 | MOLT-4 | inactive |
| COc1cc(C(=O)N(C(=O)N2CCCCC2)c2ccccc2)cc(OC)c1OC | MOLT-4 | inactive |
| C=CCNC1=C(C(=O)OCC)C(=O)CO1 | MOLT-4 | inactive |
| CC[C@@H]1CSC(/C=C/C2OC3OC(C)(C)OC3C3OC(C)(C)OC23)=N1 (some centres not stated) | MOLT-4 | inactive |
| CCCCCCCCCCCCCC(=O)OCC1OC(=O)CC1O (configuration not stated) | MOLT-4 | inactive |
| COC(=O)C1CC=C(SC(=O)c2ccccc2)N1C(=O)c1ccccc1 (configuration not stated) | MOLT-4 | inactive |
| CC(C)C12C=CC(C)(CC1)n1c(=O)c3cc4ccccc4cc3c(=O)n12 (configuration not stated) | MOLT-4 | inactive |
| Cc1cc(NS(=O)(=O)c2ccc(NC(=O)c3ccc(Cl)c4c(Nc5ccc(S(N)(=O)=O)cc5)c5ccccc5nc34)cc2)no1 | MOLT-4 | inactive |

====

Reported GI50 values for the following compounds.
Tested on: UACC-257
protocolDescription: NCI tumour cell line growth inhibition, 48 h
Active and inactive are the calls of the source. Rule as the data show it: active = GI50 up to about 1.1 µM and inactive = higher.
assayEndpoint: GI50

| compound | measuredTarget | assayEndpoint | valueObserved |
| --- | --- | --- | --- |
| CC1(CO)OC1COCc1ccccc1 (stereo not given) | UACC-257 | GI50 | > 100 µM (inactive) |
| O=c1ccn2n1CCCCC2 | UACC-257 | GI50 | > 100 µM (inactive) |
| COc1ccc(C=O)c([N+](=O)[O-])c1 | UACC-257 | GI50 | 37.7 µM (inactive) |
| CC(=O)OCCCCn1cc(Cn2ccc(=O)n(Cc3cn(CCCCOC(C)=O)nn3)c2=O)nn1 | UACC-257 | GI50 | > 100 µM (inactive) |
| Cc1cc(N)c2ccccc2[n+]1CCCCCCCCCC[n+]1c(C)cc(N)c2ccccc21 [DEQUALINIUM CHLORIDE] | UACC-257 | GI50 | 2.91 µM (inactive) |

====

System: OVCAR-4
protocolDescription: NCI tumour cell line growth inhibition, 48 h
Activity calls are given as the source filed them. No stated cut-off is given here; in the data, active = GI50 up to about 1.1 µM and inactive = higher.
Possible outcomes: yes (1) for active, no (0) for inactive

| compound | measuredTarget | label |
| --- | --- | --- |
| O=C(CC1(O)C(=O)Nc2c(Cl)cc(Cl)cc21)c1ccccc1 (configuration not stated) | OVCAR-4 | no (0) |
| COc1cc(/C=C(\C#N)c2ccccn2)cc(Br)c1O | OVCAR-4 | no (0) |
| c1ccc(-c2cn3c(nc4ccccc43)c(-c3ccccc3)n2)cc1 | OVCAR-4 | no (0) |
| C[C@@H]1[C@H](c2ccccc2)O[B-]2(c3ccc(Br)cc3)OC(=O)C[N+]12C (some centres not stated) | OVCAR-4 | no (0) |
| Clc1cc(N/N=C(/c2ccccc2)c2ncccn2)ncn1 | OVCAR-4 | no (0) |
| O=c1[nH]cc(OCC(F)(F)F)c(=O)[nH]1 | OVCAR-4 | no (0) |
| CN1c2ccccc2C(=O)NC12CCN(CC1COc3ccccc3O1)CC2 (configuration not stated) | OVCAR-4 | no (0) |
| C=CCCCCCCCCC(=O)NS(=O)(=O)c1ccccc1 | OVCAR-4 | no (0) |
| c1ccc2nn(C3CCCO3)nc2c1 (configuration not stated) | OVCAR-4 | no (0) |
| COC(=O)c1cc(-c2ccc(-c3ccc(O)cc3)cc2)cc(-c2ccc(-c3ccc(O)cc3)cc2)c1 | OVCAR-4 | no (0) |
| O=C1c2cccc3cccc(c23)C(=O)N1CCCNCCCCNCCCNCCCN1C(=O)c2cccc3cccc(c23)C1=O | OVCAR-4 | yes (1) |
| O=C1C=C(NCCc2ccccc2)c2ccccc2C1=O | OVCAR-4 | no (0) |
| O=C(CCC(=O)c1ccsc1)c1ccsc1 | OVCAR-4 | no (0) |
| COc1ccc(N2C(=O)C(C)SC2c2cc3cc(Br)ccc3nc2Cl)cc1 (configuration not stated) | OVCAR-4 | no (0) |
| C=C1CC[C@@]2(C)[C@@H]([C@@H]1C)[C@H]1CC[C@@H]3[C@@]4(C)CC[C@H](O)C(C)(C)[C@@H]4CC[C@@]3(C)[C@]1(C)C[C@@H]2O | OVCAR-4 | no (0) |
| CC(C)C(NCc1c(O)ccc2c(-c3ccccc3)cc(=O)oc12)C(=O)O (configuration not stated) | OVCAR-4 | no (0) |
| COc1ccc(C2Oc3c(cc(O)c(OC)c3C)[C@@H]2C)cc1OC (some centres not stated) | OVCAR-4 | no (0) |
| CC(=O)N1c2ccccc2C(C)C1c1[nH]c2ccccc2c1C (configuration not stated) | OVCAR-4 | no (0) |
| CN1CCCCC1CCN1c2ccccc2Sc2ccc([S+](C)[O-])cc21 (configuration not stated) [MESORIDAZINE] | OVCAR-4 | no (0) |
| c1sc(NC2=NCCO2)c2c1CCCC2 | OVCAR-4 | no (0) |
| N#Cc1ccccc1NC(=O)C(=O)C1NC(=S)NC1=O (configuration not stated) | OVCAR-4 | no (0) |
| COc1ccc(C(=O)c2sc(Nc3ccccc3)nc2N)cc1 | OVCAR-4 | no (0) |

====

Tested on: Malme-3M
protocolDescription: NCI tumour cell line growth inhibition, 48 h
The source made the active and inactive calls. Rule as the data show it: active = GI50 up to about 1.1 µM and inactive = higher.
GI50 values, listed per item

| compound | GI50 |
| --- | --- |
| CC[C@@H]1C[C@H]2CC3c4[nH]c5ccc(O)cc5c4CCN(C2)C31 | > 100 µM (inactive) |
| CC(=O)Nc1ccc(NCC(=O)Nn2cnc3ccc(S(=O)(=O)Nc4ccc(NC(C)=O)cc4)cc3c2=O)cc1 | > 100 µM (inactive) |
| CCCCCCCCCCCCCCCC(=O)OCC1OC(n2cc(F)c(=O)[nH]c2=O)C(NC(=O)N(CCCl)N=O)C(O)C1O (centres undefined) | 4.47 µM (inactive) |
| COc1cc(-c2cccs2)sc1-c1cccs1 | 39 µM (inactive) |
| COc1ccc(C2C(Cl)C(=O)N2NC(=O)c2ccccc2O)cc1 (centres undefined) | > 100 µM (inactive) |
| COc1ccc2nc(NC(=O)C(=O)C(C(=O)c3ccccc3-c3ccccc3)C3OC(=O)c4ccccc43)sc2c1 (centres undefined) | 12.1 µM (inactive) |
| CN(C)CCNC(=O)c1cccc2[nH]c(-c3ccc(Cl)cc3)nc12 | 6.82 µM (inactive) |
| CC(=O)c1sc2c(c1O)c(=O)n(-c1ccccc1)c(=S)n2-c1ccccc1 | > 100 µM (inactive) |
| Cc1ccc(NC(=O)CC(=O)N2N=C(c3ccccc3)C(/N=N/c3ccc(S(=O)(=O)CCOS(=O)(=O)O)cc3)C2=O)cc1 (centres undefined) | > 100 µM (inactive) |
